Here the recorded melting point is given for each entry.

Solved cases (2 shown):
O=c1cc(C(F)(F)F)nc(-c2ccccc2F)[nH]1 [Compound 28] | 168 to 169 °C
Cc1c(-c2ccccc2)nc(-c2ccccn2)[nH]c1=O [Compound 48] | 140 to 141 °C

Lab note: next molecule to report on.
What does the data say about its melting point? Entry: Cc1c(C(F)(F)F)nc[nH]c1=O [Compound 32]
183 to 185 °C

----------
Test system: M. tuberculosis H37Rv
METHOD_NOTES: Minimum inhibitory concentration (IC90) against fluorescent M. tuberculosis in liquid culture
MEASUREMENT_PARAMETERS: MTB IC90 assay; Figure 1 primary hits and reference drugs in this assay
READOUT: MIC (µM)
# number only, unit µM dropped from output

Solved cases (8 shown):
CCOC(=O)CCCc1c(C(F)(F)F)nc(-c2ccccn2)[nH]c1=O [Compound 12] | 3.1
O=c1[nH]c(-c2ccccn2)nc(C(F)(F)F)c1CC1CC1 [Compound 11] | 7.9
NNC(=O)c1ccncc1 [isoniazid, reference compound] | 0.6
CC[C@@H](CO)NCCN[C@@H](CC)CO [ethambutol, reference compound] | 3.3
O=c1cc(C(F)(F)F)nc(-c2cc(OCc3ccccc3)ccn2)[nH]1 [Compound 6] | 1.3
Cc1c(C(F)(F)F)nc(-c2ccccn2)[nH]c1=O [Compound 10] | 2.9
CCCCc1c(C(F)(F)F)nc(-c2ccccn2)[nH]c1=O [Compound 2] | 6.8
CC(C)Cc1c(C(F)(F)F)nc(-c2ccccn2)[nH]c1=O [Compound 14] | 5.8

Query for M. tuberculosis H37Rv: what MIC does the record show for O=C1c2ccccc2-c2nn3c(=O)cc(C(F)(F)F)nc3nc21 [Compound 1] ?
3.1

Can you handle O=c1[nH]c(-c2ccccn2)nc(C(F)(F)F)c1Cc1ccc(F)cc1 [Compound 5] next?
1.7
